# Target entity: endogenous CD38 in HL60 cells (Homo sapiens, UniProt P28907)
# Construct: endogenous in cells
# Sequence (P28907 whole entry): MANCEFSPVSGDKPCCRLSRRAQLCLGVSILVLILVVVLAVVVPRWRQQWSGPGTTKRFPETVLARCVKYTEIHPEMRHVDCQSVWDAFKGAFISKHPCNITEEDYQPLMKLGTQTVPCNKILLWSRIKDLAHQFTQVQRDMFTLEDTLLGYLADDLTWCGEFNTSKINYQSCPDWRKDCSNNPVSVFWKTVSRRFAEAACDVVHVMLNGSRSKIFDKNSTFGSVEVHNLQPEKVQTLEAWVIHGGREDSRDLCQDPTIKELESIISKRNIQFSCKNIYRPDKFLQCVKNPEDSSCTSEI
# Measurement description: cellular CD38 assay in HL60 cells (cellular NAD levels)
# Experimental conditions: all-trans retinoic acid, 24 hours, read-out: hCD38 HL60 ATRA NAD Cell Diaphorase IC50
Threshold-based label: IC50 under 1000 nM gives y, IC50 not under 1000 nM gives n.

| Compound | Target entity | Group |
| --- | --- | --- |
| COCCOc1cc(C(=O)Nc2ccc(C(F)(F)F)nc2)nc(-c2cncn2C)n1 | endogenous CD38 in HL60 cells (Homo sapiens, UniProt P28907) | y |
| CO[C@H]1CC[C@H](NC(=O)c2nc(C)cc(-n3ccnc3)n2)CC1 | endogenous CD38 in HL60 cells (Homo sapiens, UniProt P28907) | n |
| COc1cc(C(=O)Nc2ccc(C(F)F)nc2)nc(-c2cncs2)n1 | endogenous CD38 in HL60 cells (Homo sapiens, UniProt P28907) | n |
| COc1cc(-c2cncn2C)nc(C(=O)N[C@H]2CC[C@H](OC)CC2)n1 | endogenous CD38 in HL60 cells (Homo sapiens, UniProt P28907) | n |
| COCCOc1cc(-c2cncn2C)nc(C(=O)Nc2ccc(C(F)(F)F)nc2)n1 | endogenous CD38 in HL60 cells (Homo sapiens, UniProt P28907) | n |
| O=C(N[C@H]1CCN(c2ccccc2)C1)c1nccc(-n2ccnc2)n1 | endogenous CD38 in HL60 cells (Homo sapiens, UniProt P28907) | n |
| COc1ccc([C@H]2C[C@H](NC(=O)c3nccc(-n4ccnc4)n3)C2)cc1 | endogenous CD38 in HL60 cells (Homo sapiens, UniProt P28907) | n |
| COc1cc(C(=O)Nc2ccc(C(F)(F)F)nc2)nc(-n2ccnc2)c1 | endogenous CD38 in HL60 cells (Homo sapiens, UniProt P28907) | n |
| O=C(Nc1ccccc1F)c1cccc(-n2ccnc2)n1 | endogenous CD38 in HL60 cells (Homo sapiens, UniProt P28907) | n |
| CO[C@H]1CC[C@H](NC(=O)c2nc(-c3cncn3C)cnc2N)CC1 | endogenous CD38 in HL60 cells (Homo sapiens, UniProt P28907) | n |
| O=C(N[C@H]1C[C@H](c2ccc(F)cc2)C1)c1nccc(-n2ccnc2)n1 | endogenous CD38 in HL60 cells (Homo sapiens, UniProt P28907) | n |
| COCCO[C@H]1CC[C@H](NC(=O)c2cccc(-n3ccnc3)n2)CC1 | endogenous CD38 in HL60 cells (Homo sapiens, UniProt P28907) | n |
| Cn1cncc1-c1nc(C(=O)N[C@H]2C[C@H](c3ccccc3)C2)cc(C2CCOCC2)n1 | endogenous CD38 in HL60 cells (Homo sapiens, UniProt P28907) | n |
| CC(C)(O)c1ccc(NC(=O)c2ccnc(-n3ccnc3)n2)cn1 | endogenous CD38 in HL60 cells (Homo sapiens, UniProt P28907) | y |
| Cc1cc(C(=O)Nc2cccnc2)nc(-n2ccnc2)c1 | endogenous CD38 in HL60 cells (Homo sapiens, UniProt P28907) | y |
| Cn1cncc1-c1nc(C(=O)Nc2ccc(C(F)F)nc2)cc(C2CCOCC2)n1 | endogenous CD38 in HL60 cells (Homo sapiens, UniProt P28907) | y |
| COc1cc(C(=O)Nc2ccc(C(F)(F)F)nc2)nc(-c2cncn2C)c1 | endogenous CD38 in HL60 cells (Homo sapiens, UniProt P28907) | n |
| COCCOc1cc(C(=O)Nc2ccc(C(F)F)nc2)nc(-c2cncn2C)n1 | endogenous CD38 in HL60 cells (Homo sapiens, UniProt P28907) | y |
| Cn1cncc1-c1ccnc(C(=O)N[C@H]2C[C@H](c3ccccc3F)C2)n1 | endogenous CD38 in HL60 cells (Homo sapiens, UniProt P28907) | n |
| O=C(Nc1ccc(C(F)(F)F)nc1)c1ccnc(-c2cncs2)n1 | endogenous CD38 in HL60 cells (Homo sapiens, UniProt P28907) | n |
| CO[C@H]1CC[C@H](NC(=O)c2cc(C3CCOCC3)nc(-n3ccnc3)n2)CC1 | endogenous CD38 in HL60 cells (Homo sapiens, UniProt P28907) | n |
| Cn1cncc1-c1nc(C(=O)NC23CC(C(C)(C)O)(C2)C3)cc(C2CCOCC2)n1 | endogenous CD38 in HL60 cells (Homo sapiens, UniProt P28907) | n |
| O=C(N[C@H]1C[C@H](c2ccccc2F)C1)c1nccc(-n2ccnc2)n1 | endogenous CD38 in HL60 cells (Homo sapiens, UniProt P28907) | n |
| CC(C)(O)c1ccc(NC(=O)c2nccc(-n3ccnc3)n2)cc1 | endogenous CD38 in HL60 cells (Homo sapiens, UniProt P28907) | y |
| O=C(NC1CC2(C1)CC(F)(F)C2)c1cncc(-n2ccnc2)n1 | endogenous CD38 in HL60 cells (Homo sapiens, UniProt P28907) | n |
| O=C(N[C@H]1CC[C@H](C(F)F)CC1)c1cc(C2CC2)nc(-n2ccnc2)n1 | endogenous CD38 in HL60 cells (Homo sapiens, UniProt P28907) | n |
| Cn1cncc1-c1ccnc(C(=O)N[C@H]2C[C@H](c3ccccc3)C2)n1 | endogenous CD38 in HL60 cells (Homo sapiens, UniProt P28907) | n |
| Cc1ccc(-n2ccnc2)nc1C(=O)Nc1cccnc1 | endogenous CD38 in HL60 cells (Homo sapiens, UniProt P28907) | y |
| Cn1cncc1-c1ccnc(C(=O)N[C@H]2C[C@H](Oc3ccccc3)C2)n1 | endogenous CD38 in HL60 cells (Homo sapiens, UniProt P28907) | n |
| O=C(NC1CCCOC1)c1cccc(-n2ccnc2)n1 (centres unmarked) | endogenous CD38 in HL60 cells (Homo sapiens, UniProt P28907) | n |
| O=C(NC1CCC(F)(F)CC1)c1cc(C2CCOCC2)nc(-n2ccnc2)n1 | endogenous CD38 in HL60 cells (Homo sapiens, UniProt P28907) | n |
| O=C(N[C@H]1CC[C@H](C(F)F)CC1)c1nccc(-n2ccnc2)n1 | endogenous CD38 in HL60 cells (Homo sapiens, UniProt P28907) | n |
| O=C(Nc1cccnc1)c1nccc(-n2ccnc2)n1 | endogenous CD38 in HL60 cells (Homo sapiens, UniProt P28907) | y |
| Cn1cncc1-c1ccnc(C(=O)N[C@H]2C[C@H](c3cccc(F)c3)C2)n1 | endogenous CD38 in HL60 cells (Homo sapiens, UniProt P28907) | n |
| Cn1cncc1-c1ccnc(C(=O)N[C@H]2C[C@H](c3ccnc(C(F)(F)F)c3)C2)n1 | endogenous CD38 in HL60 cells (Homo sapiens, UniProt P28907) | n |
